Target: CTNNA1 (catenin alpha 1) (UniProt P35221 2-906)
Sequence (P35221 2-906): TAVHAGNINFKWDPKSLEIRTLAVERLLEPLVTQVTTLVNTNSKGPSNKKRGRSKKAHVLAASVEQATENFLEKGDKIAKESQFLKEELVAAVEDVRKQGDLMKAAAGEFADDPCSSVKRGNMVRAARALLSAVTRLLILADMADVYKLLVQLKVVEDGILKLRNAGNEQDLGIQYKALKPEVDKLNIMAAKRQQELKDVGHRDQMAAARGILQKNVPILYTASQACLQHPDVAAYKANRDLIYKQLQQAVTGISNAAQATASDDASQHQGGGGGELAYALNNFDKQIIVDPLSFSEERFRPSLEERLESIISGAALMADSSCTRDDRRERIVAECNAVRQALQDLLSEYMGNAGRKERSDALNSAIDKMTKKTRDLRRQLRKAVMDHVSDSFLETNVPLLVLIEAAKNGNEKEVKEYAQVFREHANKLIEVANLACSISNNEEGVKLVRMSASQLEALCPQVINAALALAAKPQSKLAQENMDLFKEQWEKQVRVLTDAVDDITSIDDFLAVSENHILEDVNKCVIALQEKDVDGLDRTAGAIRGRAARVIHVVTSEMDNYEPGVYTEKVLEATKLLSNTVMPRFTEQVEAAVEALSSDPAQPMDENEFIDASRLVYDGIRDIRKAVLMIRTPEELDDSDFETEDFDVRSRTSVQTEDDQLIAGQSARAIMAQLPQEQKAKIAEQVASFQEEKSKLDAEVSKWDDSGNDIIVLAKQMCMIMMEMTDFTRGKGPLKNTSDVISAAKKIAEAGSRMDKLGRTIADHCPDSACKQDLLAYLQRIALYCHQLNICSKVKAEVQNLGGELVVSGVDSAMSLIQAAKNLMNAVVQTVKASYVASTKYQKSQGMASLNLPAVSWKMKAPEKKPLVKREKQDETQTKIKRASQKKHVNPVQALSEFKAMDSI
Test: MST; MST: 50 nM labeled CTNNA1 in 10 mM PBS pH 7.4, EA2 0.00153-50 uM in 10 mM PBST (0.05% Tween-20) pH 7.4; temperature not stated
Details: tags: RED-NHS dye label; predicted mFold secondary structure
ASSAY_READOUT: Kd
Report as: number unit

# input binder: EA2 (ssDNA) DNA: AGCCTAAGCCTGTCCAGGAATCGTGCAGCCATAGCCTAAGCCTGTCCAGGAATCGATGGCTTAGTGGCACGATTAGGTC ; wanted: its Kd 2.07 µM

Attribution: paper PMC12120766
